# Test system: SH-SY5Y
# EXPERIMENT SUMMARY: Cytotoxicity against human SH-SY5Y cells assessed as cell viability at 10 uM after 48 hrs by MTT assay relative to control
# Format: functional
# PARTICULARS: read-out: Activity
# reported viability at 10 µM; entries follow
READOUT LABEL: viability at 10 µM

[[record]]
mol_smiles = "O=C(CCCCCCCCc1cn(-c2cnc3ccccc3c2)nn1)NCc1cccnc1"
system = "SH-SY5Y"
assay_value = "29%"

[[record]]
mol_smiles = "O=C(CCCCCCCc1cn(-c2ccccc2CO)nn1)NCc1cccnc1"
system = "SH-SY5Y"
assay_value = "96%"

[[record]]
mol_smiles = "O=C(CCCCCCc1cn(-c2ccccc2-c2ccccc2)nn1)NCc1cccnc1"
system = "SH-SY5Y"
assay_value = "47%"

[[record]]
mol_smiles = "O=C(CCCCCc1cn(-c2ccccc2-c2ccccc2)nn1)NCCc1cccnc1"
system = "SH-SY5Y"
assay_value = "25%"

[[record]]
mol_smiles = "O=C(CCCCCCCCc1cn(-c2ccc(N3CCOCC3)cc2)nn1)NCc1cccnc1"
system = "SH-SY5Y"
assay_value = "74%"

[[record]]
mol_smiles = "O=C(CCCCCCCc1cn(-c2ccc(CN3CCOCC3)cc2)nn1)Nc1ccncc1"
system = "SH-SY5Y"
assay_value = "125%"

[[record]]
mol_smiles = "O=C(CCCCCCCc1cn(-c2ccccc2Cc2ccccc2)nn1)NCCc1cccnc1"
system = "SH-SY5Y"
assay_value = "101%"

[[record]]
mol_smiles = "O=C(CCCCCc1cn(-c2ccccc2-c2ccccc2)nn1)NCc1cccnc1"
system = "SH-SY5Y"
assay_value = "12.5%"

[[record]]
mol_smiles = "O=C(CCCCCCCCc1cn(-c2ccc(N3CCOCC3)cc2)nn1)Nc1ccncc1"
system = "SH-SY5Y"
assay_value = "28%"

[[record]]
mol_smiles = "O=C(CCCCCCCc1cn(-c2ccc(N3CCOCC3)cc2)nn1)Nc1ccncc1"
system = "SH-SY5Y"
assay_value = "103%"

[[record]]
mol_smiles = "O=C(CCCCCCCCc1cn(-c2cnc3ccccc3c2)nn1)Nc1ccncc1"
system = "SH-SY5Y"
assay_value = "53%"

[[record]]
mol_smiles = "O=C(CCCCCCCc1cn(-c2ccccc2-c2ccccc2)nn1)Nc1cccnc1"
system = "SH-SY5Y"
assay_value = "111%"

[[record]]
mol_smiles = "O=C(CCCCCCCc1cn(-c2ccccc2Cc2ccccc2)nn1)NCCc1ccncc1"
system = "SH-SY5Y"
assay_value = "99%"

[[record]]
mol_smiles = "O=C(CCCCCc1cn(Cc2ccc(-c3ccccc3)cc2)nn1)NCCc1ccncc1"
system = "SH-SY5Y"
assay_value = "100%"

[[record]]
mol_smiles = "CNCC(=O)N(CCn1cc(CCCCCCCC(=O)NCCc2cccnc2)nn1)Cc1ccccc1"
system = "SH-SY5Y"
assay_value = "109%"

[[record]]
mol_smiles = "O=C(CCCCCCCc1cn(-c2ccccc2Cc2ccccc2)nn1)NCc1cccnc1"
system = "SH-SY5Y"
assay_value = "94%"

[[record]]
mol_smiles = "O=C(CCCCCCCc1cn(-c2ccccc2-c2ccccc2)nn1)Nc1ccncc1"
system = "SH-SY5Y"
assay_value = "32%"


====

# reported pEC50; entries follow
# System: SH-SY5Y
# EXPERIMENT SUMMARY: Cytotoxicity against human SH-SY5Y cells assessed as reduction in cell viability after 48 hrs by MTT assay
# Format: functional, cell-based
pEC50: −log10 of the molar value.
READOUT LABEL: pEC50

[[record]]
mol_smiles = "O=C(/C=C/c1cccnc1)NCCCCCc1cn(-c2ccccc2-c2ccccc2)nn1"
system = "SH-SY5Y"
assay_value = 7.70

[[record]]
mol_smiles = "O=C(CCCCCc1cn(-c2ccccc2-c2ccccc2)nn1)NCCc1cccnc1"
system = "SH-SY5Y"
assay_value = 6.17

[[record]]
mol_smiles = "O=C(CCCCCc1cn(-c2ccccc2-c2ccccc2)nn1)NCc1cccnc1"
system = "SH-SY5Y"
assay_value = 6.34

[[record]]
mol_smiles = "O=C(/C=C/c1cccnc1)NCCCCC1CCN(C(=O)c2ccccc2)CC1"
system = "SH-SY5Y"
assay_value = 8.49

